tested on: ACHN renal adenocarcinoma cell line; experiment: Fluorometric microculture cytotoxicity assay (FMCA); assay type: cell-based, human; settings: FMCA 72 hr, cisplatin concentration, read-out: IC50 (95% confidence interval)

| COMPOUND | IC50 |
| --- | --- |
| N.N.[Cl][Pt][Cl] [Cisplatin, Cis-diammine-dichloroplatinum (II)] | 6.9 µM |

====

tested on: 8226/dox40 resistant myeloma sub-line; experiment: Fluorometric microculture cytotoxicity assay (FMCA); assay type: cell-based, human; conditions: 8226/dox40, FMCA 72 hr, cisplatin concentration; read-out: IC50 (95% confidence interval)
pIC50: −log10 of the molar value.

| COMPOUND | pIC50 |
| --- | --- |
| N.N.[Cl][Pt][Cl] [Cisplatin, Cis-diammine-dichloroplatinum (II)] | < 5.00 |

====

system: FaDu head and neck squamous cell carcinoma cell line; experiment: Fluorometric microculture cytotoxicity assay (FMCA); format: cell-based, human; details: FMCA 72 hr, cisplatin concentration, read-out: IC50 (95% confidence interval)
pIC50: −log10 of the molar value.

| COMPOUND | pIC50 |
| --- | --- |
| N.N.[Cl][Pt][Cl] [Cisplatin, Cis-diammine-dichloroplatinum (II)] | 5.10 |
